# measurement protocol: gradient 5% acetonitrile 3 min, to 50% in 2 min, to 85% in 15 min, held 3 min, 100 µL/min
# condition description: column: Zorbax Extend-C18 2.1 x 50 mm; eluents: water / acetonitrile, 0.1% formic acid
RP-LC retention time class ranges: low interval = under 700 s, middle interval = from 700 s up to 800 s, high interval = 800 s and over

- molecule: "CCCC(NC(=O)CCc1c(-c2ccc(Cl)cc2)nc2ccccn12)c1cccs1 (stereo not given)"
  class name: "middle interval"
- molecule: "Cn1c(SCc2ccc([N+](=O)[O-])cc2)nnc1-c1cccnc1"
  class name: "low interval"
- molecule: "CCn1cc(CCNC(=O)c2ccccc2C(F)(F)F)c2cccnc21"
  class name: "middle interval"

Which RP-LC retention time band matches `CCCN(C)C(=O)c1ccc(-c2nnc3ccc(NC(=O)C4CCC4)cn23)cc1` ?
middle interval

Into which category would you place `COc1cccc(CNC(=O)Nc2c(-c3cccc(C)c3)nc3ccccn23)c1` ?
low interval

Quick check: band for CNC(=O)N1CCCC(c2cccc(C(=O)NCc3ccc(OC(C)C)cc3)c2)C1 (stereo not given)
high interval

Which of the defined bands does the recorded RP-LC retention time of `CCOC(=O)N1CCN(c2ncc(S(=O)(=O)c3ccc(C)c(C)c3)c(N)n2)CC1` sit within?
high interval

Lab log: `COc1cccc(C#N)c1OCC(N)=O` — assign RP-LC retention time category
low interval

====

Listed next: entries and their corresponding RP-LC retention time.
# measurement protocol: gradient 5% acetonitrile 3 min, to 50% in 2 min, to 85% in 15 min, held 3 min, 100 µL/min
# condition description: column: Zorbax Extend-C18 2.1 x 50 mm; eluents: water / acetonitrile, 0.1% formic acid
Write it as a number; the unit s goes unstated.

- compound: "CCOC(=O)c1c(C)oc2nc(C)nc(NCCCN3CCN(c4cccc(C)c4)C(C)C3)c12 (centres undefined)"
  RP-LC retention time [s]: 778
- compound: "O=S(=O)(c1ccc2c(c1)CCCC2)N1CCCC1c1nc(-c2ccc(F)cc2)no1 (centres undefined)"
  RP-LC retention time [s]: 1290
- compound: "Cc1ccc(S(=O)(=O)N2CCC(C3CCNC3)CC2)cc1F (centres undefined)"
  RP-LC retention time [s]: 651

Specify reported RP-LC retention time for the compound shown: COc1ccc(CNC(=O)C2CCCN(c3nccnc3Sc3ccccc3)C2)cc1OC (centres undefined)
1120

In one line, give reported RP-LC retention time of the entry `O=C(c1ccno1)N1CCC(c2nnc(-c3ccco3)s2)CC1` .
644

Determine from records and report RP-LC retention time for CC(C)NC(=O)C1CCCN(c2nc3ncn(CC(=O)Nc4ccc5c(c4)CCC5)c(=O)c3s2)C1 (centres undefined)
709

====

# measurement protocol: gradient 5% acetonitrile 3 min, to 50% in 2 min, to 85% in 15 min, held 3 min, 100 µL/min
# condition description: column: Zorbax Extend-C18 2.1 x 50 mm; eluents: water / acetonitrile, 0.1% formic acid
outcome measure: RP-LC retention time (s)
# value in s; strip the unit string

Record excerpt, results attached:
- smiles: "Cc1cc(C(=O)NCC2CCN(C(=O)NC(C)(C)C)CC2)c(C)o1"
  units: "s"
  experimental value: 699
- smiles: "Cc1nnc2ccc(-c3noc(Cc4ccc(Cl)cc4)n3)cn12"
  units: "s"
  experimental value: 868

Give a short answer stating reported RP-LC retention time for `O=C(Nc1cnn(-c2ncncc2N2CCCCC2)c1)C1CC1` .
604

Using the record for `CCOC(=O)c1c(C)n(Cc2ccco2)c2ccc(OCC)cc12` , state its measured RP-LC retention time.
617

Tell us which RP-LC retention time value is on record for `CCOc1ccccc1-c1csc(NC(=O)Cc2csc(COc3cc(C)ccc3C)n2)n1`
1360

====

# measurement protocol: gradient 5% acetonitrile 3 min, to 50% in 2 min, to 85% in 15 min, held 3 min, 100 µL/min
# condition description: column: Zorbax Extend-C18 2.1 x 50 mm; eluents: water / acetonitrile, 0.1% formic acid
Classify as follows. Reported RP-LC retention time greater than or equal to 700 s: YES. Reported RP-LC retention time below: NO.

Hello, I need to know if `COC[C@@H]1CN(C(=O)c2ccoc2C)C[C@H]1c1nc(C)no1` has measured RP-LC retention time not below 700 s. Thanks!
NO

# bool: RP-LC retention time of COc1ccc(C(=O)N2CCN(C(=O)c3nnn4c3COC(c3ccc(F)cc3)C4)CC2)cc1F (stereo not given) >= 700 s
YES

Does RP-LC retention time meet or surpass 700 s for `COc1ccc(-c2c(C)noc2NC(C)=O)cc1S(=O)(=O)N1CCCc2ccccc21` ?
YES

Does RP-LC retention time meet or surpass 700 s for COc1ccc(C(=O)NC2CCN(c3cc(-c4ccc(Cl)cc4)[nH]n3)C2)c(OC)c1 (stereo not given) ?
YES

Does the reported RP-LC retention time for `Cc1cc(N2CCCCC2)n2nc(CN3CCN(c4ccccc4F)CC3)nc2n1` fall at or above the 700 s mark?
NO

Does `O=C(NC1CC1)[C@@H]1C[C@H](Oc2ccccc2)CN1C(=O)C1CCCC1` have a reported RP-LC retention time of at least 700 s?
YES

Is reported RP-LC retention time greater than or equal to 700 s here: `CCNc1cc(N2CCC(CCC(=O)N3CCC(C)CC3)CC2)ncn1`
NO

Decide: is the reported value of RP-LC retention time for `O=C(NCc1cccs1)c1ccc(-c2cccnc2)nc1` equal to or greater than 700 s?
NO

====

Examples of molecules with documented RP-LC retention time follow.
# measurement protocol: gradient 5% acetonitrile 3 min, to 50% in 2 min, to 85% in 15 min, held 3 min, 100 µL/min
# condition description: column: Zorbax Extend-C18 2.1 x 50 mm; eluents: water / acetonitrile, 0.1% formic acid
State the answer as a number, implicitly in s.

The following molecules have reported results that may help.
- molecule: "CCOc1ccc(NC(=O)Cn2nc3n(c2=O)CCCCC3)cc1"
  RP-LC retention time [s]: 690
- molecule: "Cc1cc(-c2c(C)sc(C)c2S(=O)(=O)Nc2ccc(C)c(Cl)c2)n[nH]1"
  RP-LC retention time [s]: 1100
- molecule: "Cc1ccccc1CNC(=O)C1=C2CCCN2c2ccc(F)cc2S1(=O)=O"
  RP-LC retention time [s]: 918

Indicate the recorded RP-LC retention time value for this molecule: Cc1ccc(CNC(=O)C2CCCN(c3cnc4nccnc4c3)C2)o1 (centres undefined)
772

Please report the measured RP-LC retention time for `O=c1c2sccc2n(Cc2nc(-c3ccccc3)no2)c(=O)n1-c1cccc(F)c1`
959

Answer with the recorded RP-LC retention time of `CCc1ccc(S(=O)(=O)N2CCN(c3ccc4nncn4n3)CC2)s1` only.
693

Look up and report measured RP-LC retention time for this entry: CCOc1ccc(S(=O)(=O)N2CCCC2c2nc(-c3cccc(Cl)c3)no2)cc1 (centres undefined)
1230

Give RP-LC retention time for the following molecule: CC1CCCN(C(=O)Cn2nc(-c3nc(-c4ccc5c(c4)OCO5)no3)ccc2=O)C1 (centres undefined)
765

Output measured RP-LC retention time for this item: `COc1cccc(Oc2nccnc2N2CCC(C(=O)NCCC(C)C)CC2)c1`
861

Return value of RP-LC retention time for input CCOc1ccccc1NC(=O)N1c2ccccc2CC1c1nc(C2CC2)no1 (centres undefined) , no commentary.
1180

Report RP-LC retention time for COc1cc(OC)cc(C(=O)NC2CCN(c3cc(-c4ccccc4)[nH]n3)C2)c1 (centres undefined)
710

Give me measured RP-LC retention time, please, for this molecule: `O=C(Cn1ncn2nc(-c3ccccc3)cc2c1=O)NCCCN1CCCC1`
602

# return recorded RP-LC retention time for input CC(C(=O)N1CCN(c2ccccn2)CC1)n1ccc2cc(S(=O)(=O)N3CCCC3)ccc21 (centres undefined)
660

Specify RP-LC retention time for CCc1noc(-c2ccc(SCC(=O)N3CCCCC3C)nc2)n1 (centres undefined) and stop.
1200

Consider the molecule CCc1ccc(NC(=O)NCC(c2cccnc2)c2c[nH]c3ccccc23)cc1 (centres undefined) . State its measured RP-LC retention time.
710

Look up and report measured RP-LC retention time for this entry: `CCOc1ccccc1-n1ccn(Cc2nc(-c3ccccc3)no2)c(=O)c1=O`
848

====

# measurement protocol: gradient 5% acetonitrile 3 min, to 50% in 2 min, to 85% in 15 min, held 3 min, 100 µL/min
# condition description: column: Zorbax Extend-C18 2.1 x 50 mm; eluents: water / acetonitrile, 0.1% formic acid
outcome measure: RP-LC retention time (s)
Report as a plain number; the unit s is understood.

Below, 4 compounds whose answers are already recorded.
- smiles: "CS(=O)(=O)N(Cc1ccncc1)C1CN(C(=O)C2(c3ccccc3)CC2)C1"
  units: "s"
  RP-LC retention time: 610
- smiles: "CCC(=O)Nc1ccc(C2(C(=O)N3CCCCCC3)CCC2)cc1"
  units: "s"
  RP-LC retention time: 801
- smiles: "O=C(NCc1nc(-c2ccc3c(c2)Sc2ccccc2C(=O)N3C2CC2)no1)c1ccco1"
  units: "s"
  RP-LC retention time: 861
- smiles: "COc1cccc(CNC(=O)c2nnc(-c3ccc(S(=O)(=O)N(C)C)cc3)o2)c1OC"
  units: "s"
  RP-LC retention time: 829

Please find the next compound below.
Answer with the recorded RP-LC retention time for the compound listed here: `Cc1ccc(-n2ncc3c(=O)n(Cc4nc(-c5ccc(OC(C)C)cc5)no4)cnc32)cc1`
1200
